test_description: gradient 5% acetonitrile 3 min, to 50% in 2 min, to 85% in 15 min, held 3 min, 100 µL/min
test_context: column: Zorbax Extend-C18 2.1 x 50 mm; eluents: water / acetonitrile, 0.1% formic acid
Define the label as Met when RP-LC retention time is strictly less than 700 s and as Not met in all remaining cases.

Is it true that RP-LC retention time reported for COC(=O)C(NC(=O)N1CCCn2nc(-c3ccc(OC)cc3)cc2C1)c1ccccc1 (stereo not given) is less than 700 s? Not met

Could you please tell me whether RP-LC retention time recorded for `Cc1ccnc(NS(=O)(=O)c2ccc(NC(=O)c3nc(-c4cnccn4)no3)cc2)n1` is less than 700 s? Met

Determine if `Cc1ccc(-c2nc3ccc(Cl)cn3c2Nc2ccc3c(c2)OCCO3)cc1` shows RP-LC retention time strictly lower than 700 s. Not met

Could you please tell me whether RP-LC retention time recorded for `O=C(CCc1cn(Cc2ccccc2Cl)c2ccccc12)N1CCN(c2ccccn2)CC1` is less than 700 s? Not met

Quick check: does `Cn1cc(S(=O)(=O)N2CCOCC2)cc1C(=O)N1CCN(c2ccc(F)cc2)CC1` have RP-LC retention time under 700 s? Not met

For `COCCc1nncn1C1CN(Cc2cccc(OC(F)(F)F)c2)C1` , is the recorded RP-LC retention time below the cut-off of 700 s? Met

Field: below-cutoff. Rule: recorded RP-LC retention time strictly less than 700 s. Subject: `CCc1ccc(NC(=O)Cn2c(=O)c3cc(-c4ccco4)nn3c3ncccc32)cc1` Not met

Lab log: compare recorded RP-LC retention time with 700 s; is it strictly lower for CC(C)CCN1CC(=O)N(Cc2ccc(N3CCOCC3)cc2)C(c2cccs2)C1=O (stereo not given) ? Not met

Is RP-LC retention time strictly under 700 s for the entry `O=C(CCNc1cnc2cnccn12)NCc1ccc(C(F)(F)F)cc1` ? Met

Take the molecule `Cc1nc(-c2noc(-c3ccccc3)n2)cn1CC(=O)N1CCc2ccccc21` and say whether its RP-LC retention time is less than 700 s. Not met

I wonder whether `COCc1cc(=O)n(CC(=O)Nc2cccc(Cl)c2)c(N)n1` has RP-LC retention time below 700 s. Can you tell? Met

# check: RP-LC retention time < 700 s for `CC1CCN(C(=O)CSc2nnc(-c3ccc(F)cc3)o2)CC1` Not met

Record `COc1ccccc1CNC(=O)c1c(C)sc2ccn(CC(C)C)c(=O)c12` : is its RP-LC retention time strictly below 700 s? Not met

Check if RP-LC retention time falls below 700 s for Cc1cc2c(cc1S(=O)(=O)N1CCCC1C(=O)NCc1ccc(Cl)cc1)OCC(=O)N2 (stereo not given) . Not met

Given the entry `O=C(CCc1ccc2nc(-c3ccccc3)[nH]c2c1)NCc1cccnc1` , would its reported RP-LC retention time be below 700 s? Met

Here's an entry: `CCOC(=O)c1ccc(NC(=O)c2ccc(S(=O)(=O)N(C)C)cc2)cc1` . Is its RP-LC retention time below 700 s? Not met

I wonder whether `CN(C)c1ccc(N2C=C(C(=O)N3CCOCC3)S(=O)(=O)c3ccc(F)cc32)cc1` has RP-LC retention time below 700 s. Can you tell? Not met

Please check: RP-LC retention time for `O=C(Cn1c(=O)c(CCC(=O)NC2CCCC2)nc2ccccc21)Nc1ccc(F)cc1` , strictly under 700 s or not? Not met

Please check: RP-LC retention time for COc1ccc(C(=O)N2CCCC2c2cc(C)on2)cc1OC (stereo not given) , strictly under 700 s or not? Met
